The values you see were collected from ChEMBL document CHEMBL1128204.

target: Human immunodeficiency virus type 1 reverse transcriptase (Human immunodeficiency virus 1, UniProt Q72547, Y181C); test: Inhibitory activity against HIV-1 Y181C Reverse transcriptase (RT)
Measured IC50, listed per entry for reference.
Expressed in nM, but write only the number.

Example compounds with recorded IC50:
Provide one value: measured IC50 of CCNc1ccc2c(n1)N(CC)c1ncccc1C(=O)N2C
1300

Input CCN1c2ncccc2C(=O)N(C)c2ccc(N3CC=CC3)nc21 , output reported IC50.
640

New cases:
Entry CCN1c2ncccc2C(=O)N(C)c2ccc(-c3ccccn3)nc21 needs its IC50 filled in; supply it.
1600

---

target: Human immunodeficiency virus type 1 reverse transcriptase (Human immunodeficiency virus 1, UniProt Q72547, Y181C); assay: Inhibitory activity against HIV-1 Y181C Reverse transcriptase (RT)
parameter: IC50 (nM)
Kindly provide the numeric value in nM only, without the unit symbol.

Give recorded IC50. CCN1c2ncccc2C(=O)N(C)c2ccc(NC)nc21
710

// fetch IC50 given entry CCN1c2ncccc2C(=O)N(C)c2ccc(-c3ccoc3)nc21
110

Assign IC50 to the following record: CCN1c2ncccc2C(=O)N(C)c2ccc(-c3ncc[nH]3)nc21
190

Attention now turns to another entry.
State, in one line, measured IC50 of CCN1c2ncccc2C(=O)N(C)c2ccc(-c3cccc(OC)c3)nc21
210

---

UniProt Q72547 data, read-out IC50
The reply should be a number in nM, with the unit left off.

Identify the reported IC50 for the following entry. CCN1c2ncccc2C(=O)N(C)c2ccc(OC)nc21
40

Give a short answer stating reported IC50 for CN1C(=O)c2cccnc2N(C2CC2)c2nc(Br)ccc21 .
30

Provide one value: measured IC50 of CCN1c2ncccc2C(=O)Nc2c(C)cc(N3CCC(O)C3)nc21 (centres undefined)
40

Specify reported IC50 for the compound shown: CCN1c2ncccc2C(=O)N(C)c2ccc(-c3cccc(OC)c3)nc21
150

Please indicate IC50 recorded for CCN1c2ncccc2C(=O)N(C)c2ccc(=O)[nH]c21
470

***
Output measured IC50 for this item: CCN1c2ncccc2C(=O)N(C)c2ccc(-c3ccsc3)nc21
100

Please report IC50 for the following compound: CCN1c2ncccc2C(=O)Nc2c(C)cc(C(C)C)nc21
1000

Provide measured IC50 value, entry: Cc1cc(C)c2c(n1)N(C1CC1)c1ncccc1C(=O)N2
70

Write down IC50 measured for item CCN1c2ncccc2C(=O)N(C)c2ccc(-c3nccs3)nc21
100

Quick one: give measured IC50 for CCN1c2ncccc2C(=O)Nc2c(C)cc(C)nc21
20

---

target: Human immunodeficiency virus type 1 reverse transcriptase (Human immunodeficiency virus 1, UniProt Q72547, Y181C); assay: Inhibitory activity against HIV-1 Y181C Reverse transcriptase (RT)
The label is 1.0 for IC50 below 1000 nM and 0.0 for IC50 equal to or exceeding 1000 nM.

Study these solved cases before continuing.
# TODO verify IC50 < 1000 nM strictly for this compound: CCN1c2ncccc2C(=O)N(C)c2ccc(N3CCCC3)nc21
0.0

Is it true that IC50 reported for CN1C(=O)c2cccnc2N(C2CC2)c2nc(-c3cn[nH]c3)ccc21 is less than 1000 nM?
1.0

Please determine if Cc1cc(C)c2c(n1)N(C1CC1)c1ncccc1C(=O)N2 is below 1000 nM in terms of IC50.
0.0

Please let me know if CCN1c2ncccc2C(=O)N(C)c2ccc(N)nc21 shows IC50 below 1000 nM.
0.0

Here's an entry: CN1C(=O)c2cccnc2N(C2CC2)c2nc(Br)ccc21 . Is its IC50 below 1000 nM?
0.0

---
Please determine if CCN1c2ncccc2C(=O)N(C)c2ccc(/C=C/C(N)=O)nc21 is below 1000 nM in terms of IC50.
0.0

Would you kindly verify if IC50 of CCN1c2ncccc2C(=O)N(C)c2cccnc21 is strictly less than 1000 nM?
0.0
